Examples of compounds with documented pod_cell_stress PoD follow.
System: HepG2 cells
Assay: Cell stress panel (CSP), 24 h, 8 concentrations, BIFROST global PoD
Type: cell-based
Settings: HepG2; cell stress panel PoD
Description: Compounds were tested using the previously developed cell stress panel ([Hatherell et al. 2020]) and the expanded biomarker panel outlined in Middleton et al. HepG2 cells were treated with all compounds for 24 h across 8 concentrations prior to biomarker analysis. The same plate layout and number of replicates (3 biological and 2 technical) were used as previously for each assay within the panel.
Write the answer as a number in µM, unit excluded.

Some solved cases for reference:
>  <compound>
CCOP(=S)(OCC)Oc1nc(Cl)c(Cl)cc1Cl

>  <result-unit>
µM

>  <value>
0.578

$$$$
>  <compound>
CN(C)C(=N)N=C(N)N [Metformin, N,N-Dimethyltriimidodicarbonic diamide]

>  <result-unit>
µM

>  <value>
133.042

$$$$
>  <compound>
CCN(CC)C(=O)c1cccc(C)c1 [DEET, N,N-Diethyl-3-methylbenzamide]

>  <result-unit>
µM

>  <value>
29.817

$$$$

Noted for "Cn1cnc([N+](=O)[O-])c1Sc1ncnc2nc[nH]c12" : its pod_cell_stress PoD reads 3.96e-05

The value of pod_cell_stress PoD measured for the compound COc1ccc(Cl)cc1C(=O)NCCc1ccc(S(=O)(=O)NC(=O)NC2CCCCC2)cc1 [Glybenclamide] turned out to be 24.3128

pod_cell_stress PoD reported for this compound "Cc1c(O)cccc1O" : 8.64

Reported pod_cell_stress PoD ( "O=[N+]([O-])c1cc(C(F)(F)F)c(Cl)c([N+](=O)[O-])c1Nc1ncc(C(F)(F)F)cc1Cl" ) = 0.6023

// sample CC1(C)C(C=C(Cl)Cl)C1C(=O)OC(C#N)c1cccc(Oc2ccccc2)c1 (centres unmarked) , its pod_cell_stress PoD was 7.881
